# target-under-test: Inhibitor of nuclear factor kappa-B kinase subunit beta (Homo sapiens, UniProt O14920)
# Sequence (O14920 whole entry): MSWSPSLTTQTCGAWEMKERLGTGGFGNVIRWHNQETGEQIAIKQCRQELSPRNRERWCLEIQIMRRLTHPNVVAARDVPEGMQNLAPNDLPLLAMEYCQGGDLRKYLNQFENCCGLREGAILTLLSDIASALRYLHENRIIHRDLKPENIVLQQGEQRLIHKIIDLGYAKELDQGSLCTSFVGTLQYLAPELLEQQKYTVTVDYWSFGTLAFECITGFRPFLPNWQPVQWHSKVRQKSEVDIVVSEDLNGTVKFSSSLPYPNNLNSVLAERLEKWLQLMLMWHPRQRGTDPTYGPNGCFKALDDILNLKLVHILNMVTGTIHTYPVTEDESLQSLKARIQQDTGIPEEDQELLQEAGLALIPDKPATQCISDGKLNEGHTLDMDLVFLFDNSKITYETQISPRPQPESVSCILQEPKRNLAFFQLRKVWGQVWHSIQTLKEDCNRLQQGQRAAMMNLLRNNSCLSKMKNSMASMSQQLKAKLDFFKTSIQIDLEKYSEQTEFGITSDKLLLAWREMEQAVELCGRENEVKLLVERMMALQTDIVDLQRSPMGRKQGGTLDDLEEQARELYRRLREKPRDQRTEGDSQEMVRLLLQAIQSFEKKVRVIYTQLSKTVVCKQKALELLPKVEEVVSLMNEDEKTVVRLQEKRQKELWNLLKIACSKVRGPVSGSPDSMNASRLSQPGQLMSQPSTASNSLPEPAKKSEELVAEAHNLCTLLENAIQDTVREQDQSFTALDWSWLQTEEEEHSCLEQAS
# assay-procedure: Inhibition of IKK-beta by tome resolved fluorescence assay
quantity-name: IC50 (nM)

* O=C(Nc1cc(Cl)cc2c1[nH]c1cnccc12)c1cccnc1 | 150

Recorded values, source ChEMBL document CHEMBL1159073.
